Origin of values: PubChem BioAssay (NCATS)

Tested on: C2A
assay.comment: qHTS profiling for inhibitors of Plasmodium falciparum proliferation (AID 504749); also: nearly all actives have a fitted effect of over 60% in size
recorded.conditions: P. falciparum in erythrocytes, SYBR Green DNA, 72 h; series mostly up to 28.7 µM
Results filed as inconclusive are left out. The source made the active and inactive calls. Calls follow the shape of the dose curve; as a rule, active = well fitted inhibition curve with a large enough effect; inconclusive = small, poorly fitted or top-dose-only effect; inactive = flat fitted curve, though single readings scatter.
Respond using exactly one of the listed classes: t = active, f = inactive

# fetch the recorded call for `NS(=O)(=O)c1cc(Cl)c(Cl)c(S(N)(=O)=O)c1` here
f

Fill in: this test's call for `C=C1c2cccc(O)c2C(O)=C2C(=O)[C@@]3(O)C(O)=C(C(N)=O)C(=O)[C@@H](N(C)C)[C@@H]3[C@@H](O)[C@H]12` is ___
f

Outcome logged for `COc1c(C)c2c(c(O)c1CC=C(C)CCC(=O)OCCN1CCOCC1)C(=O)OC2` in this assay:
t

Hi, sorry to bother you, what did the test record for O=C1C(CCC(O)c2ccc(F)cc2)C(c2ccc(O)cc2)N1c1ccc(F)cc1 (stereo unspecified) ?
f

GET /call?item= COc1ccnc(CS(=O)c2nc3ccc(OC(F)F)cc3[nH]2)c1OC (stereo unspecified) returns the recorded outcome of this test.
f

// outcome(item) with item = `CS(=O)(=O)c1ccc(C2=C(c3ccccc3)C(=O)OC2)cc1`
f

// param item: `O=C(O)c1nc(=O)[nH]c(=O)[nH]1` ; yields the recorded call
f

State the result this test recorded for CN1CCN2c3ncccc3Cc3ccccc3C2C1 (stereo unspecified) .
f

Given `N#Cc1c(N(CC(=O)O)CC(=O)O)sc(C(=O)O)c1CC(=O)O` , state the outcome it received in this test.
f

Could you please tell me the result logged for N#CC(c1ccc(Cl)cc1)c1c(Cl)cc(-n2ncc(=O)[nH]c2=O)cc1Cl (stereo unspecified) in this assay?
f

Query: recorded result category for `COc1cc2c(cc1OC)CC(=O)N(CCCN(C)C[C@H]1Cc3cc(OC)c(OC)cc31)CC2` in this test
f
